# assay_summary: Identification of proteins required for the processing of the EWS-FLI1 nascent transcript;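 further: robust z of luciferase light less the median z of siRNAs with the same seed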
# measurement_conditions: TC32 Ewing sarcoma NR0B1-luc vs CMV-luc, 48 h; screened at 20 nM (by protocol)
# Protocol: Ewing sarcoma (ES) cells depend on the EWS-FLI1 fusion transcription factor for cell survival. […] Luciferase activity was assessed 48 hours post siRNA-transfection. Twenty microl of serum-free media containing Lipofectamine RNAiMax (0.05 microl) was added to wells containing siRNA (0.8 pmol). […] Luciferase expression was measured using OneGlo (Promega, Madison, WI). […]
Whole data set: some 59,000 sequences, median the read-out near -0.00055, cut for the lowest 2% near -2. The full list was thinned out, with the lowest values kept by preference.
value_kind: seed-corrected z-score

stdin: Supply recorded seed-corrected z-score for UAUGUUCAGCUCGCAUUUC against CMAS here.
stdout: 0.259

stdin: Fill in reported seed-corrected z-score for this entry: UUUCAUAUGUGAAUCCUCC against TCN2
stdout: 0.641

stdin: Give the reported seed-corrected z-score for this sequence. AAAUCCUCCAAACAUGUGC against ZNRF2
stdout: -0.0777

stdin: Consider the sequence UUUUAUUCGAAAUUCUGCA against ITGB1BP1 and give its recorded seed-corrected z-score.
stdout: 0.195

====

# assay_summary: Identification of proteins required for the processing of the EWS-FLI1 nascent transcript;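 further: robust z of luciferase light less the median z of siRNAs with the same seed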
# measurement_conditions: TC32 Ewing sarcoma NR0B1-luc vs CMV-luc, 48 h; screened at 20 nM (by protocol)
Over roughly 59,000 sequences, the read-out has its median near -0.00055; the lowest 2% begin near -2. Only a selection was taken, and the lowest values are over-represented in it overall.
Label fulfilled when seed-corrected z-score < -0.08; otherwise not fulfilled.

stdin: I'd appreciate it if you could check whether UGUGGUUCAACAAGAAGCU against CD177 has seed-corrected z-score smaller than -0.08.
stdout: fulfilled

stdin: Item UGUCGUACCAGUCGGACCA against TAC1 : seed-corrected z-score beneath -0.08, strictly?
stdout: fulfilled

stdin: Hello, is seed-corrected z-score of the following sequence strictly smaller than -0.08? AGAGAUCCCGUGUAUGACC against SLC30A2
stdout: fulfilled

stdin: Record UUCCUUAAUGGUGUAUUCG against RIN3 : is its seed-corrected z-score strictly below -0.08?
stdout: not fulfilled

stdin: Would you kindly verify if seed-corrected z-score of UAUGUCUUUCAGACUGACC against RPTN is strictly less than -0.08?
stdout: fulfilled

stdin: Strictly below -0.08 in seed-corrected z-score? UUAGGCUCUUUGUAUGUCC against ELOVL4
stdout: not fulfilled

stdin: Consider UUCAAUGAUAAUAAGGUUG against SF3B3 . Does its seed-corrected z-score lie strictly below -0.08?
stdout: fulfilled

stdin: In plain terms, does UUGAGUGCAAAGGCUUGUC against SLC25A12 come in under -0.08 for seed-corrected z-score?
stdout: not fulfilled

stdin: # TODO verify seed-corrected z-score < -0.08 strictly for this sequence: AACGUGUCACCACAUAUGG against MAPK10
stdout: fulfilled

stdin: Lab note: seed-corrected z-score threshold -0.08. Does this sequence come in strictly under it? UUGGAACAUAUUGGGAUCG against DDN
stdout: not fulfilled

stdin: Problem: For the sequence UCAAUUCCCAGGGUAAAGG against PIGN , is seed-corrected z-score under -0.08?
stdout: fulfilled

stdin: Is seed-corrected z-score strictly under -0.08 for the entry UUAGUCUCAGCAUCGGCUC against KIAA1210 ?
stdout: fulfilled

stdin: Please state whether seed-corrected z-score is below -0.08 for AUACCGAUCAUAGCACAUC against OR2A12
stdout: not fulfilled

stdin: Given the entry UCUGGUUCUUGUGCUCUUC against INO80B , would its reported seed-corrected z-score be below -0.08?
stdout: fulfilled

stdin: Item UAUUUGCGAAGUCAUGAGG against COPB1 : seed-corrected z-score beneath -0.08, strictly?
stdout: fulfilled

stdin: Please let me know if UUUGUCAGAAAACGCAUCC against GPR149 shows seed-corrected z-score below -0.08.
stdout: fulfilled

stdin: Problem: For the sequence UCAGGAUCAUGAGUAGGCG against DEPDC5 , is seed-corrected z-score under -0.08?
stdout: not fulfilled

stdin: State whether -0.08 exceeds seed-corrected z-score recorded for UCGAUGUACACUUUGAGGC against B3GNT8 .
stdout: not fulfilled

stdin: Hi there! Is seed-corrected z-score for UCUUGGUCAGGUUUCCUCG against MUSTN1 below -0.08, do you know?
stdout: fulfilled

stdin: Strictly below -0.08 in seed-corrected z-score? AAUGAAGGAACCAUUGCCC against IL18BP
stdout: not fulfilled

stdin: Find out if reported seed-corrected z-score for UGUACUUUAAUAGAGAUAC against MRPS10 is less than -0.08
stdout: fulfilled

stdin: Just wondering, is seed-corrected z-score of UUCAGUACAUCUCUGCAGG against RDH12 below -0.08?
stdout: not fulfilled

stdin: Does this sequence meet the criterion seed-corrected z-score < -0.08? UUGCAGAUCUUUUCGCACC against S100A9
stdout: fulfilled

stdin: Does the reported seed-corrected z-score of the following sequence sit strictly below -0.08? UAACGAGAAAGACGGAUGC against CEP104
stdout: fulfilled

====

# assay_summary: Identification of proteins required for the processing of the EWS-FLI1 nascent transcript;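 further: robust z of luciferase light less the median z of siRNAs with the same seed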
# measurement_conditions: TC32 Ewing sarcoma NR0B1-luc vs CMV-luc (EWS-FLI1 target promoter against control promoter), 48 h; screened at 20 nM (by protocol)
Whole data set: some 59,000 sequences, median the read-out near -0.00055, cut for the lowest 2% near -2. The sample as a whole holds a higher share of the lowest values than the screen did.
So I've got a bunch of sequences here, and I need their seed-corrected z-score values.
Lab note: record the figure alone, no unit after it.

stdin: Look up and report measured seed-corrected z-score for this entry: UGCUCAAUCUGAUAGAUGG against TP63
stdout: -0.257

stdin: Using known records, supply seed-corrected z-score for UUCGAUACCAGCCGGUAGC against F8A2
stdout: -12.9

stdin: Specify measured seed-corrected z-score for UGACGAAUCCCUGCUAUAG against TDRD5 .
stdout: -0.0697

stdin: Please indicate seed-corrected z-score recorded for AAACCGAUAAGAACUGAGA against TMEM41A
stdout: 0.54

stdin: Give reported seed-corrected z-score value for UCCGGAUACACUUCACUAC against ANXA6
stdout: -0.467

stdin: State, in one line, measured seed-corrected z-score of UUGUUUACAAUUGAAACUC against RPS7
stdout: 2.49

stdin: State its seed-corrected z-score for this sequence: UAAUGUACUCGUCACACCU against BICD2
stdout: -2.89

stdin: Please give measured seed-corrected z-score of the following entry: UAUUCGCACAGGCUGAUUC against BBS12
stdout: 0.0215

Values were extracted from PubChem BioAssay AID1159506.
